Ref: patent US20210300924A1

Consider the following molecules and their measured hERG IC20/TLR9 IC50 readings.
target: hERG channel (Homo sapiens, UniProt Q12809); construct: expressed in transfected cells; host or cells: CHO (Chinese hamster ovary), CHOhERG; test: hERG channel inhibition assay (patch-clamp, CHOhERG cells); format: cell-based; conditions: safety ratio; >30 suggests sufficient window
Sequence (Q12809 whole entry): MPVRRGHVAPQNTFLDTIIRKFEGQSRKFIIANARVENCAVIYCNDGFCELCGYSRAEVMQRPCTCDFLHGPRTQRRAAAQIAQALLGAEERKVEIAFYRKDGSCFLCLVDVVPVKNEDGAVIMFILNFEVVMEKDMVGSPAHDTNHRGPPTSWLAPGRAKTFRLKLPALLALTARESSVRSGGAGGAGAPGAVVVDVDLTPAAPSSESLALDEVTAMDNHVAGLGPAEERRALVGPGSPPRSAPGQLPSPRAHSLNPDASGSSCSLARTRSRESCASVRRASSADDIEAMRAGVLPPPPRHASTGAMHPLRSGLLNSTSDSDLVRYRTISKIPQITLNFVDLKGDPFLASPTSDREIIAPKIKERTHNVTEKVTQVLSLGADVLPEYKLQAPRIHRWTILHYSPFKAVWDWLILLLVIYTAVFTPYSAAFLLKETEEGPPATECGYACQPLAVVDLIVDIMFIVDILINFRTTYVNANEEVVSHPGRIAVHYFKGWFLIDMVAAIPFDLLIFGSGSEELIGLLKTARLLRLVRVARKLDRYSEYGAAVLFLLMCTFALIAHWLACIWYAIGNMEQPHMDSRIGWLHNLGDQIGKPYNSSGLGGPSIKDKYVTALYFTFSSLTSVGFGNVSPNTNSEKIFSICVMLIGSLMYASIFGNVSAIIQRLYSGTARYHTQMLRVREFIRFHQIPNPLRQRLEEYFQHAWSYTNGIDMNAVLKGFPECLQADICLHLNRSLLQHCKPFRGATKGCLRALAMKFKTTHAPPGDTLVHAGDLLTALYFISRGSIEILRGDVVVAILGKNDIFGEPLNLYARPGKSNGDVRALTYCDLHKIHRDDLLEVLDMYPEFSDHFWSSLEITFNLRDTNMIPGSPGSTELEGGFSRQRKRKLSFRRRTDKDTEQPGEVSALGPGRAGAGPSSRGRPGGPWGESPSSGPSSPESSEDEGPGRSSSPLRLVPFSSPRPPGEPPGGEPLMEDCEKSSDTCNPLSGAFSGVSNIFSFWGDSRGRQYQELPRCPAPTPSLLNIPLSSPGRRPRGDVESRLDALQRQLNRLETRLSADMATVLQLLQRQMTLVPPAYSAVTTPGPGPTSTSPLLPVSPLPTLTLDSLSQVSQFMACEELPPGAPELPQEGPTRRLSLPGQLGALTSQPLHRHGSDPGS
QUANTITY MEASURED: hERG IC20/TLR9 IC50

INSERT INTO measurements (molecule, measurement_qualifier, assay_result) VALUES
  ('C[C@@H]1CN(c2ccc(C#N)c3ncccc23)C[C@H](CN2CCN(c3ccccn3)CC2)O1 [ER-888285, reference compound]', '=', 0.5),
  ('COc1ccc(N2CCN(C[C@H]3CN(c4ccc(C#N)c5ncccc45)C[C@@H](C)O3)CC2)cc1 [Example R1, reference compound]', '=', 0.1),
  ('Cc1c2c(nn1C1CN(C[C@H]3CN(c4ccc(C#N)c5ncccc45)C[C@@H](C)O3)C1)CCNC2 [Example 13]', '>', 84.5),
  ('C[C@@H]1Cc2cn(C3CN(C[C@H]4CN(c5ccc(C#N)c6ncccc56)C[C@@H](C)O4)C3)nc2CN1 (single isomer, unassigned) [Example 30]', '>', 175.7),
  ('C[C@@H]1CN(c2ccc(C#N)c3ncccc23)C[C@H](CN2CCN(c3ccccc3)CC2)O1 [ER-887258, reference compound]', '=', 0.3),
  ('C[C@@H]1CN(c2ccc(C#N)c3ncccc23)C[C@H](CN2CC(n3cc4c(n3)CN(C)CC4)C2)O1 [Example 5]', '>', 73.1),
  ('C[C@@H]1CN(c2ccc(C#N)c3ncccc23)C[C@H](CN2CC(n3cc4c(n3)CCNC4)C2)O1 [Example 2]', '>', 151.6),
  ('C[C@@H]1CN(c2ccc(C#N)c3ncccc23)C[C@H](CN2CC(n3cc4c(n3)CNCC4)C2)O1 [Example 4]', '>', 314.5),
  ('C[C@@H]1CN(c2ccc(C#N)c3ncccc23)C[C@H](CN2CC(n3ncc4c3CNCC4)C2)O1 [Example 3]', '>', 194.9),
  ('C[C@@H]1CN(c2ccc(C#N)c3ncccc23)C[C@H](CN2CCN(c3ccncc3)CC2)O1 [ER-888286, reference compound]', '=', 0.2),
  ('C[C@@H]1CN(c2ccc(C#N)c3ncccc23)C[C@H](CN2CCN(c3ccc(Cl)cc3)CC2)O1 [Example R2, reference compound]', '=', 0.04),
  ('C[C@@H]1CN(c2ccc(C#N)c3ncccc23)C[C@H](CN2CCC(n3ncc4c3CCNC4)CC2)O1 [Example 35]', '>', 121.4),
  ('C[C@@H]1CN(c2ccc(C#N)c3ncccc23)C[C@H](CN2CCC(n3cc4c(n3)CCNC4)CC2)O1 [Example 36]', '=', 180.7),
  ('C[C@@H]1Cc2c(cnn2C2CN(C[C@H]3CN(c4ccc(C#N)c5ncccc45)C[C@@H](C)O3)C2)CN1 [Example 16]', '>', 129.0);

* * *

target: CYP2D6 (Homo sapiens); construct: tissue BD-Gentest 452117; host or cells: human liver microsomes; experiment: CYP inhibition assay in human liver microsome; format: in vitro ADME; settings: human liver microsomes, probe dextromethorphan, dextromethorphan substrate, percentage inhibition <0: not or weak inhibitor, read-out: CYP 2D6 inhibition % @ 10 μM
Sequence (P10635 whole entry): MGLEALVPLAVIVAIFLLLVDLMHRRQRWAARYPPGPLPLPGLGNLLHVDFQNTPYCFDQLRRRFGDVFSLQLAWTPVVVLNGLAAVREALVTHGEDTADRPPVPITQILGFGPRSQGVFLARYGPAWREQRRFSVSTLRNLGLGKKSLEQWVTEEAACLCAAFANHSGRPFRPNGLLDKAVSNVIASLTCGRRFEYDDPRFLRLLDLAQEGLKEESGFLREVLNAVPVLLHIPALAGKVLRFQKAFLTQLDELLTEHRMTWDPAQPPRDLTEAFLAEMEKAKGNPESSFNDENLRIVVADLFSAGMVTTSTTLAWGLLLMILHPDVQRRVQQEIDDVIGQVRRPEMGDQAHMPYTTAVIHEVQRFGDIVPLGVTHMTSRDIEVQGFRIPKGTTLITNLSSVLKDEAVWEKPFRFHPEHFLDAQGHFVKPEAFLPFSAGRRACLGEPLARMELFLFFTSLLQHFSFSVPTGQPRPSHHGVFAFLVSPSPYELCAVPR
Catalogue of molecules with associated inhibition at 10 min, 10 µM
QUANTITY MEASURED: inhibition at 10 min, 10 µM

INSERT INTO results (molecule, quantity_measured, assay_result) VALUES
  ('C[C@@H]1CN(c2ccc(C#N)c3ncccc23)C[C@H](CN2CC(n3cc4c(n3)C[C@H](C)NC4)C2)O1 [Example 19]', 'inhibition at 10 min, 10 µM', '-2.5%'),
  ('C[C@@H]1CN(c2ccc(C#N)c3ncccc23)C[C@H](CN2CC(n3cc4c(n3)CN(C)CC4)C2)O1 [Example 5]', 'inhibition at 10 min, 10 µM', '-1.5%'),
  ('C[C@@H]1CN(c2ccc(C#N)c3ncccc23)C[C@H](CN2CC(n3ncc4c3C[C@H](C)NC4)C2)O1 [Example 18]', 'inhibition at 10 min, 10 µM', '-2.5%'),
  ('CCN1CCc2cn(C3CN(C[C@H]4CN(c5ccc(C#N)c6ncccc56)C[C@@H](C)O4)C3)nc2C1 [Example 7]', 'inhibition at 10 min, 10 µM', '-19.5%'),
  ('C[C@@H]1CN(c2ccc(C#N)c3ncccc23)C[C@H](CN2CCC(n3cc4c(n3)CCNC4)CC2)O1 [Example 36]', 'inhibition at 10 min, 10 µM', '20.3%'),
  ('CCN1CCc2cnn(C3CN(C[C@H]4CN(c5ccc(C#N)c6ncccc56)C[C@@H](C)O4)C3)c2C1 [Example 6]', 'inhibition at 10 min, 10 µM', '8.5%'),
  ('Cc1c2c(nn1C1CN(C[C@H]3CN(c4ccc(C#N)c5ncccc45)C[C@@H](C)O3)C1)CCNC2 [Example 13]', 'inhibition at 10 min, 10 µM', '3%'),
  ('C[C@@H]1CN(c2ccc(C#N)c3ncccc23)C[C@H](CN2CC(n3cc4c(n3)CNC4)C2)O1 [Example 11]', 'inhibition at 10 min, 10 µM', '-6%'),
  ('C[C@@H]1CN(c2ccc(C#N)c3ncccc23)C[C@H](CN2CC(n3ncc4c3CCN[C@H]4C)C2)O1 [Example 22]', 'inhibition at 10 min, 10 µM', '5.5%'),
  ('C[C@@H]1CN(c2ccc(C#N)c3ncccc23)C[C@H](CN2CC(n3cc4c(n3)CNCC4)C2)O1 [Example 4]', 'inhibition at 10 min, 10 µM', '7.5%'),
  ('C[C@@H]1CN(c2ccc(C#N)c3ncccc23)C[C@H](CN2CC(n3cc4c(n3)CCN[C@@H]4C)C2)O1 [Example 21]', 'inhibition at 10 min, 10 µM', '10.5%'),
  ('C[C@@H]1CN(c2ccc(C#N)c3ncccc23)C[C@H](CN2CC(n3cc4c(n3)[C@@H](C)CNC4)C2)O1 (single isomer, unassigned) [Example 26]', 'inhibition at 10 min, 10 µM', '20%'),
  ('C[C@@H]1Cc2cn(C3CN(C[C@H]4CN(c5ccc(C#N)c6ncccc56)C[C@@H](C)O4)C3)nc2CN1 (single isomer, unassigned) [Example 30]', 'inhibition at 10 min, 10 µM', '3.5%'),
  ('C[C@@H]1CN(c2ccc(C#N)c3ncccc23)C[C@H](CN2CC(n3ncc4c3CN[C@@H](C)C4)C2)O1 (single isomer, unassigned) [Example 27]', 'inhibition at 10 min, 10 µM', '22%'),
  ('C[C@@H]1Cc2cnn(C3CN(C[C@H]4CN(c5ccc(C#N)c6ncccc56)C[C@@H](C)O4)C3)c2CN1 (single isomer, unassigned) [Example 28]', 'inhibition at 10 min, 10 µM', '0.5%'),
  ('C[C@@H]1CN(c2ccc(C#N)c3ncccc23)C[C@H](CN2CC(n3cc4c(n3)CCN[C@H]4C)C2)O1 [Example 23]', 'inhibition at 10 min, 10 µM', '3%'),
  ('C[C@@H]1Cc2c(cnn2C2CN(C[C@H]3CN(c4ccc(C#N)c5ncccc45)C[C@@H](C)O3)C2)CN1 [Example 16]', 'inhibition at 10 min, 10 µM', '8%'),
  ('CC(C)N1CCc2cnn(C3CN(C[C@H]4CN(c5ccc(C#N)c6ncccc56)C[C@@H](C)O4)C3)c2C1 [Example 8]', 'inhibition at 10 min, 10 µM', '11%'),
  ('C[C@@H]1CN(c2ccc(C#N)c3ncccc23)C[C@H](CN2CC(n3cc4c(n3)[C@H](C)NCC4)C2)O1 (single isomer, unassigned) [Example 34]', 'inhibition at 10 min, 10 µM', '-11.5%'),
  ('C[C@@H]1CN(c2ccc(C#N)c3ncccc23)C[C@H](CN2CC(n3ncc4c3CCN[C@@H]4C)C2)O1 [Example 20]', 'inhibition at 10 min, 10 µM', '-6%'),
  ('Cc1nn(C2CN(C[C@H]3CN(c4ccc(C#N)c5ncccc45)C[C@@H](C)O3)C2)c2c1CNCC2 [Example 12]', 'inhibition at 10 min, 10 µM', '6%'),
  ('C[C@@H]1Cc2nn(C3CN(C[C@H]4CN(c5ccc(C#N)c6ncccc56)C[C@@H](C)O4)C3)cc2CN1 [Example 17]', 'inhibition at 10 min, 10 µM', '1.5%'),
  ('C[C@@H]1CN(c2ccc(C#N)c3ncccc23)C[C@H](CN2CC(n3ncc4c3[C@H](C)NCC4)C2)O1 (single isomer, unassigned) [Example 32]', 'inhibition at 10 min, 10 µM', '11%'),
  ('CC(C)N1CCc2cn(C3CN(C[C@H]4CN(c5ccc(C#N)c6ncccc56)C[C@@H](C)O4)C3)nc2C1 [Example 9]', 'inhibition at 10 min, 10 µM', '15%'),
  ('C[C@@H]1CN(c2ccc(C#N)c3ncccc23)C[C@H](CN2CC(n3ncc4c3CNCC4)C2)O1 [Example 3]', 'inhibition at 10 min, 10 µM', '10.5%'),
  ('Cc1c2c(nn1C1CN(C[C@H]3CN(c4ccc(C#N)c5ncccc45)C[C@@H](C)O3)C1)CCN(C)C2 [Example 15]', 'inhibition at 10 min, 10 µM', '-10.5%'),
  ('Cc1nn(C2CN(C[C@H]3CN(c4ccc(C#N)c5ncccc45)C[C@@H](C)O3)C2)c2c1CCNC2 [Example 42]', 'inhibition at 10 min, 10 µM', '17.5%'),
  ('C[C@@H]1CN(c2ccc(C#N)c3ncccc23)C[C@H](CN2CC(n3ncc4c3[C@@H](C)NCC4)C2)O1 (single isomer, unassigned) [Example 31]', 'inhibition at 10 min, 10 µM', '-3.5%'),
  ('C[C@@H]1CN(c2ccc(C#N)c3ncccc23)C[C@H](CN2CC(n3cc4c(n3)CCNC4)C2)O1 [Example 2]', 'inhibition at 10 min, 10 µM', '1%');
